Where do these numbers come from? They come from ChEMBL document CHEMBL2169755.

# Assay Details: Cytotoxicity against mouse L1210 cells after 48 hrs by resazurin reduction assay
# Assay type: cell-based
# Assay Setup: read-out: TC50
Value Kind: CC50 at 48 h (µM)
Write the answer as a number in µM, unit excluded.

INPUT: Query: CC50 at 48 h; subject: COc1cc2c(cc1C(F)(F)F)N(C(=O)Nc1cc(OC(F)(F)F)cc(-c3cccnc3)c1)CC2
OUTPUT: 3.2

###

# Tested on: Plasmodium falciparum
# Assay Details: Antiplasmodial activity against Plasmodium falciparum Dd2 assessed as inhibition of [3H]hypoxanthine incorporation incubated for 24 hrs prior to [3H]hypoxanthine addition measured after 24 hrs by beta scintillation counting
# Type: functional, organism-based
Value Kind: IC50 (nM)
Write the answer as a number in nM, unit excluded.

Below, each entry is followed by its recorded IC50 result.
Smi: COc1cc2c(cc1C(F)(F)F)N(C(=O)Nc1cc(F)cc(-c3cccnc3)c1)CC2
Value Kind: IC50
Test Value: 2120
--
Smi: O=C(Nc1cc(OC(F)(F)F)cc(-c2cccnc2)c1)N1CCc2cccc(F)c21
Value Kind: IC50
Test Value: 1070
--
Smi: COc1cc2c(cc1C(F)(F)F)N(C(=O)Nc1cc(-c3cccnc3)cc(C(F)(F)F)c1)CC2
Value Kind: IC50
Test Value: 810

INPUT: Query: IC50; subject: Cc1cc2c(cc1Cl)N(C(=O)Nc1cc(OC(F)(F)F)cc(-c3cccnc3)c1)CC2
OUTPUT: 140

INPUT: Query: IC50; subject: COc1cc2c(cc1C(F)(F)F)N(C(=O)Nc1cc(OC(F)(F)F)cc(-c3ccc(C)nc3)c1)CC2
OUTPUT: 800

INPUT: Query: IC50; subject: O=C(Nc1cc(OC(F)(F)F)cc(-c2cccnc2)c1)N1CCc2ccccc21
OUTPUT: 20

INPUT: Query: IC50; subject: CN1CCN(c2cc3c(cc2Cl)CCN3C(=O)Nc2cc(OC(F)(F)F)cc(-c3cccnc3)c2)CC1
OUTPUT: 210

###

# Assay Details: Equilibrium solubility of the compound in simulated gastric fluid after 24 hrs by LC-MS analysis at pH1.2
# Type: physicochemical
# Assay Setup: pH 1.2
Value Kind: solubility thermodynamic at 24 h
# do not omit the unit; it follows the number

INPUT: Query: solubility thermodynamic at 24 h; subject: COc1cc2c(cc1C(F)(F)F)N(C(=O)Nc1cc(OC(F)(F)F)cc(-c3cccnc3)c1)CC2
OUTPUT: 1550 µg/mL

###

# Test system: Plasmodium falciparum
# Assay Details: Antiplasmodial activity against Plasmodium falciparum Dd2 assessed as inhibition of [3H]hypoxanthine incorporation incubated for 24 hrs prior to [3H]hypoxanthine addition measured after 24 hrs by beta scintillation counting
# Format: functional, organism-based
IC50 values by entry
Write the answer as a number in nM, unit excluded.

Below, each entry is followed by its recorded IC50 result.
Smi: COc1cc2c(cc1C(F)(F)F)N(C(=O)Nc1cc(Br)cc(-c3cccnc3)c1)CC2
Test Value: 1100

Smi: O=C(Nc1cc(OC(F)(F)F)cc(-c2cccnc2)c1)N1CCc2ccc(F)cc21
Test Value: 10

Smi: O=C(Nc1cc(OC(F)(F)F)cc(-c2cccnc2)c1)N1CCc2ccc(Br)cc21
Test Value: 640

From here, focus on the item given below.
INPUT: Query: IC50; subject: Cc1ccc2c(c1)CCN2C(=O)Nc1cc(OC(F)(F)F)cc(-c2cccnc2)c1
OUTPUT: 40
